Species on record: Rattus norvegicus
Test: Open TG-GATES - Regimen: Single
Format: toxicity, organism-based, Sprague-Dawley
Parameters: regimen Single, gender Male, age 6 weeks
Details: in vivo, po, 0 mg/kg, 24 h, tissue Plasma, route gavage, dose level Control
Please respond with reported CRE for every item in the list.
Respond with the figure and its unit, in that order.

Challenge: If you can, please state the reported CRE value of CC[C@H]1[C@@H]2C[C@H]3[C@@H]4N(C)c5ccccc5[C@]45C[C@@H]([C@@H]2[C@H]5O)N3[C@@H]1O [AJMALINE] .
Response given: 0.6 mg/dL

Challenge: Check O=NN(CCCl)C(=O)NC1CCCCC1 [LOMUSTINE] too.
Response given: 0.5 mg/dL

Challenge: Check CCC1(c2ccccc2)C(=O)NC(=O)NC1=O [PHENOBARBITAL] too.
Response given: 0.4 mg/dL

Challenge: Check CC1=C(CC(=O)O)c2cc(F)ccc2/C1=C\c1ccc([S+](C)[O-])cc1 (stereo not given) too.
Response given: 0.2 mg/dL

Challenge: Check ClC(Cl)(Cl)Cl [CARBON TETRACHLORIDE] too.
Response given: 0.4 mg/dL

====

Organism: Rattus norvegicus
Experiment: Open TG-GATES - Regimen: Single
Assay type: toxicity, organism-based, Sprague-Dawley
Design: regimen Single, gender Male, age 6 weeks
Conditions: in vivo, po, 0 mg/kg, 24 h, tissue Plasma, route gavage, dose level Control
Please respond with reported AST for every item in the list.
Give the number; IU/L is assumed, so skip it.

Challenge: If you can, please state the reported AST value of OCCOCCN1CCN(C(c2ccccc2)c2ccc(Cl)cc2)CC1 (stereo unspecified) [HYDROXYZINE] .
Response given: 71

Challenge: Check "CCc1oc2ccccc2c1C(=O)c1cc(Br)c(O)c(Br)c1" too.
Response given: 61

Challenge: Check CC1=C(CC(=O)O)c2cc(F)ccc2/C1=C\c1ccc([S+](C)[O-])cc1 (stereo unspecified) too.
Response given: 74

Challenge: Check "CC[C@H]1[C@@H]2C[C@H]3[C@@H]4N(C)c5ccccc5[C@]45C[C@@H]([C@@H]2[C@H]5O)N3[C@@H]1O" too.
Response given: 66.4

Challenge: Check "O=NN1CCOCC1" too.
Response given: 65.2

Challenge: Check CN(C)CCC=C1c2ccccc2COc2ccccc21 [DOXEPIN] too.
Response given: 75.6

Challenge: Check "CCC1(c2ccccc2)C(=O)NC(=O)NC1=O" too.
Response given: 70

Challenge: Check ClC(Cl)(Cl)Cl [CARBON TETRACHLORIDE] too.
Response given: 66.6

Challenge: Check "O=NN(CCCl)C(=O)NC1CCCCC1" too.
Response given: 63.6

Challenge: Check "CN(C)C(=N)N=C(N)N" too.
Response given: 78.2

Challenge: Check CC(C)N(CCC(C(N)=O)(c1ccccc1)c1ccccn1)C(C)C (stereo unspecified) [DISOPYRAMIDE] too.
Response given: 78.6

====

Species: Rattus norvegicus
Test: Open TG-GATES - Regimen: Daily Repeat
Assay type: toxicity, organism-based, Sprague-Dawley
Parameters: regimen Daily Repeat, gender Male, age 6 weeks
Settings: in vivo, po, 0 mg/kg, […], tissue Plasma, route gavage, dose level Control, time 14 day
So basically: is TP under 6 g/dL? Then 1.0. Not under? Then 0.0.

Challenge: Field: below-cutoff. Rule: recorded TP strictly less than 6 g/dL. Subject: CC(C)N(CCC(C(N)=O)(c1ccccc1)c1ccccn1)C(C)C (stereo unspecified) [DISOPYRAMIDE]
Response given: 1.0

Challenge: Check "CCC1(c2ccccc2)C(=O)NC(=O)NC1=O" too.
Response given: 0.0

Challenge: Check "O=NN(CCCl)C(=O)NC1CCCCC1" too.
Response given: 0.0

Challenge: Check "CC[C@H]1[C@@H]2C[C@H]3[C@@H]4N(C)c5ccccc5[C@]45C[C@@H]([C@@H]2[C@H]5O)N3[C@@H]1O" too.
Response given: 1.0

Ref: ChEMBL document CHEMBL3885861
